Let's look at some molecules and their measured Emax.
study.target: B2-AR (Homo sapiens)
Construct: expressed in transfected cells; host or cells: CHO-K1
Sequence (P07550 whole entry, species assumed): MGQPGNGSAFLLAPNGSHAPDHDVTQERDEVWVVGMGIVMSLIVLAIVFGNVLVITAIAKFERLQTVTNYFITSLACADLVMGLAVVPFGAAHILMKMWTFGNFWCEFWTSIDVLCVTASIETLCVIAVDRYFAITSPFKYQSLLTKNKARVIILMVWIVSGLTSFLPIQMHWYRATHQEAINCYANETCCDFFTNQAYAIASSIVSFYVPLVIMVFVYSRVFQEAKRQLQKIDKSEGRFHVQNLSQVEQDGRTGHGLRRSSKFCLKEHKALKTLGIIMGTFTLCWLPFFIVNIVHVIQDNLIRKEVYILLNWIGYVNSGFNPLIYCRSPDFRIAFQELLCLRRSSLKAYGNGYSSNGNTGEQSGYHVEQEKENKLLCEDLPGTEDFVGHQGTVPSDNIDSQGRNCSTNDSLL
experiment.summary: cAMP Gs dynamic HTRF assay, cells expressing beta-adrenergic receptor (CHO-K1), B2-AR
Type: cell-based
run.conditions: CHO-K1, CHO-K1 cells, relative to full agonist isoproterenol; read-out: Emax (% iso) (%) [B2-AR]
Method: cAMP homogeneous time-resolved fluorescence (HTRF): experimental methods. Compound efficacy is determined using the cAMP Gs dynamic HTRF assay (Cisbio, catalog #62AM4PEC) largely following the manufacturer's instructions, also detailed below. Standard serial dilution curves are 10-point, 5-fold dilutions starting from a highest concentration of 10 μM. […]

These recorded examples may help you get a feel for the data.
| molecule | study.target | Emax |
| --- | --- | --- |
| Cc1ncccc1[C@@H](O)CNCC(C)C [I-183] | B2-AR (Homo sapiens) | 50 to 70% |
| Cc1cc([C@@H](O)CNC2CCC2)c2cn[nH]c2c1 [I-136] | B2-AR (Homo sapiens) | > 90% |
| C[C@H](NC[C@H](O)c1cccc2[nH]ncc12)C1CC1 [I-11] | B2-AR (Homo sapiens) | > 90% |
| Cc1nc(N)c(Cl)cc1[C@@H](O)CNC1CC(F)(F)C1 [I-178] | B2-AR (Homo sapiens) | > 90% |
| CCC(CC)NC[C@H](O)c1cc(F)cc2[nH]ncc12 [I-44] | B2-AR (Homo sapiens) | 70 to 90% |
| C[C@@H](NC[C@H](O)c1ccc(F)c2[nH]ncc12)C1CC1 [I-10] | B2-AR (Homo sapiens) | > 90% |

// next item, Emax requested
Exercise: Check the records and state Emax for CC1(NC[C@H](O)c2cccc3[nH]nc(Cl)c23)CC1 [I-100]
Key: > 90%
